The values you see were collected from the supplement of paper PMC10307832.

Here the recorded relative viability is given for each entry.
tested on: LCLC-103H; test: relative viability (nuclei count vs DMSO), 5 days (fraction); higher = more cells survive; conditions: first compound 1 µM
Keep the answer to the number alone.

Field: relative viability (LCLC-103H). Entry: CCN(CC)CCCCNc1ncc2cc(-c3cc(OC)cc(OC)c3)c(NC(=O)NC(C)(C)C)nc2n1 + CS(=O)(=O)N1CCN(Cc2cc3nc(-c4cccc5[nH]ncc45)nc(N4CCOCC4)c3s2)CC1 [Pictilisib] (partner 1 µM) 0.443

Checklist item: relative viability tested on LCLC-103H, entry O=c1cc(N2CCOCC2)oc2c(-c3cccc4c3sc3ccccc34)cccc12 + CC(=O)c1c(C)c2cnc(Nc3ccc(N4CCNCC4)cn3)nc2n(C2CCCC2)c1=O [Palbociclib] (partner 0.5 µM) , value? 0.43

New cases:
Kindly state the measured relative viability obtained for O=c1cc(N2CCOCC2)oc2c(-c3cccc4c3sc3ccccc34)cccc12 + Cc1nc(NC(=O)N2CCC[C@H]2C(N)=O)sc1-c1ccnc(C(C)(C)C(F)(F)F)c1 [Alpelisib] (partner 2 µM) with LCLC-103H. 0.93

Tell me reported relative viability for O=c1cc(N2CCOCC2)oc2c(-c3cccc4c3sc3ccccc34)cccc12 + COc1cccc2cc(-c3nc([C@H]4CC[C@H](C(=O)O)CC4)n4ncnc(N)c34)[nH]c12 [OSI-027] (partner 0.5 µM) , tested with LCLC-103H. 0.419

----------
Each entry below carries its reported relative viability.
test system: BEN; test: relative viability (nuclei count vs DMSO), 5 days (fraction); higher = more cells survive; settings: first compound 0.1 µM
I only need the number, thanks.

Requested field: relative viability. Item: CCN(CC)CCCCNc1ncc2cc(-c3cc(OC)cc(OC)c3)c(NC(=O)NC(C)(C)C)nc2n1 + C[C@]1(O)C[C@@H](c2nc(-c3ccc4ccc(-c5ccccc5)nc4c3)c3c(N)nccn32)C1 [Linsitinib] (partner 1 µM) 0.894

Let's switch to this compound now.
Quick check: relative viability of CCN(CC)CCCCNc1ncc2cc(-c3cc(OC)cc(OC)c3)c(NC(=O)NC(C)(C)C)nc2n1 + O=C(c1cc(Cc2n[nH]c(=O)c3ccccc23)ccc1F)N1CCN(C(=O)C2CC2)CC1 [Olaparib] (partner 8 µM) ? 1.01

----------
Examples of compounds with documented relative viability follow.
system: NCI-H1395; assay: relative viability (nuclei count vs DMSO), 5 days (fraction); higher = more cells survive; details: first compound 0.03162 µM
API doc: respond with a numeric literal and nothing else, no unit.

# input compound: O=c1cc(N2CCOCC2)oc2c(-c3cccc4c3sc3ccccc34)cccc12 + NC(=O)Nc1cc(-c2cccc(F)c2)sc1C(=O)N[C@H]1CCCNC1 [AZD7762] (partner 0.2 µM) ; wanted: its relative viability 0.403

Need relative viability, item CCN(CC)CCCCNc1ncc2cc(-c3cc(OC)cc(OC)c3)c(NC(=O)NC(C)(C)C)nc2n1 + NC(=O)Nc1cc(-c2cccc(F)c2)sc1C(=O)N[C@H]1CCCNC1 [AZD7762] (partner 0.2 µM) 0.338

Please report the recorded relative viability for O=c1cc(N2CCOCC2)oc2c(-c3cccc4c3sc3ccccc34)cccc12 + CCNC(=O)c1noc(-c2cc(C(C)C)c(O)cc2O)c1-c1ccc(CN2CCOCC2)cc1 [Luminespib] (partner 0.01 µM) . 0.75
